The following binders are listed with their measured % Positive cells values.
Target: T1, human CCR8 (human, UniProt P51685 1-355)
T1 construct: Native CCR8 on human PBMC (CCR8+ CD3+ or CCR8+ CD4+ lymphocytes); also called chemokine (C-C motif) receptor 8
T1 sequence (P51685 whole entry): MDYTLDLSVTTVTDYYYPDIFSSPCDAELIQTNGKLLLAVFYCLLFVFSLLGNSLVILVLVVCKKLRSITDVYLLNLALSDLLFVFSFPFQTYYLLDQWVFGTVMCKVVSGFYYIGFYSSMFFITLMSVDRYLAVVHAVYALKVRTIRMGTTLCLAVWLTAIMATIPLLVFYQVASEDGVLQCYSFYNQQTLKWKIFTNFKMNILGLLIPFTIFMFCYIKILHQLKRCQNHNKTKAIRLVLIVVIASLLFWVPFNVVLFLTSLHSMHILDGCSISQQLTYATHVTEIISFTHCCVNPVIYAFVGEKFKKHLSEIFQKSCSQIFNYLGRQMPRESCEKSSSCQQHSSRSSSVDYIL
Experiment: flow blocking, PBMC CCR8+CD4+; competitor PE-AB1

| binder | unitDescriptor | % Positive cells |
| --- | --- | --- |
| AB4 (antibody, V domains shown, Hybridoma monoclonal; also called antibody 4; clone 4) VH: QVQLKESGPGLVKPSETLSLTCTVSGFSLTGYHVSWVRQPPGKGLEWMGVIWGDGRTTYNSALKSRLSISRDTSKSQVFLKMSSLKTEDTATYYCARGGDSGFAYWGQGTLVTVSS VL: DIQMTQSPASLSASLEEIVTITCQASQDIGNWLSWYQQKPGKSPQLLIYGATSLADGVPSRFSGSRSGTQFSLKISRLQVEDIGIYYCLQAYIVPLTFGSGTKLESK | % | 0 |
| AB2 (antibody, V domains shown, Hybridoma monoclonal; Same VH/VL entries as AB1; also called antibody 2; clone 2) VH: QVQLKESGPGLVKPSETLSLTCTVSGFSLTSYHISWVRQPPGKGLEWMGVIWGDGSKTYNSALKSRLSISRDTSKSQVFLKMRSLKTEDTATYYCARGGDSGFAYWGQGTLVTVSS VL: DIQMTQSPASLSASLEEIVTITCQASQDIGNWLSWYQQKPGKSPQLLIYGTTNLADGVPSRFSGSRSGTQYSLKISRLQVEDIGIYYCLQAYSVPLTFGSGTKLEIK | % | 0.1 |
| AB3 (antibody, V domains shown, Hybridoma monoclonal; also called antibody 3; clone 3) VH: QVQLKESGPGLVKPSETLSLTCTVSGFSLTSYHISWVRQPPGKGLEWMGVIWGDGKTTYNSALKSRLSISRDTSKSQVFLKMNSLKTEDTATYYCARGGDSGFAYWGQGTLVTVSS VL: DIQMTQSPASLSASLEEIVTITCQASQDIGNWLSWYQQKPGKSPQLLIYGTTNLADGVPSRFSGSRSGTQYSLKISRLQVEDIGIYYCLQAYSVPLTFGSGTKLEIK | % | 0.04 |

The measured values listed here are drawn from patent US20240360228A1.
